Counter-ions that a name gives are not always drawn.
assay.endpoint: melting point

Ask: Which measured melting point value corresponds to Cc1ccc(S(=O)(=O)N2CCC(Nc3ccc(CCNC[C@H](O)COc4ccc(O)cc4)cc3)CC2)cc1 (as salt: salt) ?
Result: 89 to 92 °C

Ask: Quick one: `CCCCCCCCNC(=O)N1CCC(Nc2ccc(CCNC[C@H](O)COc3ccc(O)c4c3CCC(=O)N4)cc2)CC1`
Result: 83 to 85 °C

Ask: Quick one: O=C(c1n[nH]c2ccccc12)N1CCC(Nc2ccc(CCNC[C@H](O)COc3ccc(O)cc3)cc2)CC1 (as salt: salt)
Result: 111 to 113 °C

Ask: Quick one: `O=C(NCc1cc(F)ccc1F)N1CCC(Nc2ccc(CCNC[C@H](O)COc3ccc(O)cc3)cc2)CC1`
Result: 69 to 72 °C

Ask: Quick one: `CCCCCCNC(=O)Nc1ccc(CNC(=O)N2CCC(Nc3ccc(CCNC[C@H](O)COc4ccc(O)cc4)cc3)CC2)cc1`
Result: 141 to 143 °C

Ask: Quick one: `O=C(NCC(F)(F)F)N1CCC(Nc2ccc(CCNC[C@H](O)COc3ccc(O)cc3)cc2)CC1`
Result: 89 to 94 °C

Ask: Quick one: CCCCCCCCNC(=O)N1CCC(C(=O)N2CCC(Nc3ccc(CCNC[C@H](O)COc4ccc(O)cc4)cc3)CC2)CC1 (as salt: salt)
Result: 88 to 91 °C

Ask: Quick one: COc1cccc(CCNC(=O)N2CCC(Nc3ccc(CCNC[C@H](O)COc4ccc(O)cc4)cc3)CC2)c1 (as salt: salt)
Result: 103 to 108 °C

Ask: Quick one: CCCCCCCCNC(=O)N1CCC(N(C(C)=O)c2ccc(CCNC[C@H](O)COc3ccc(O)cc3)cc2)CC1 (as salt: salt)
Result: 71 to 74 °C

Ask: Quick one: `CCCCCCCCNC(=O)N1CCC(Nc2ccc(CCNC[C@H](O)COc3ccc(O)cc3Cl)cc2)CC1`
Result: 61 to 65 °C

Ask: Quick one: `O=C([C@@H]1CCCN1S(=O)(=O)c1ccc(F)cc1)N1CCC(Nc2ccc(CCNC[C@H](O)COc3ccc(O)cc3)cc2)CC1`
Result: 87 to 89 °C

Ask: Quick one: `Cc1ccsc1C(=O)N1CCC(Sc2ccc(CCNC[C@H](O)COc3ccc(O)cc3)cc2)CC1`
Result: 135 to 144 °C

Ask: Quick one: `CC(C)CCNC(=O)N1CCC(Nc2ccc(CCNC[C@H](O)COc3ccc(O)cc3)cc2)CC1`
Result: 72 to 77 °C

Ask: Quick one: `O=C(NCC1(c2ccccc2)CCCC1)N1CCC(Sc2ccc(CCNC[C@H](O)COc3ccc(O)cc3)cc2)CC1`
Result: 132 °C

Ask: Quick one: `O=C(NCCCc1cccs1)N1CCC(Nc2ccc(CCNC[C@H](O)COc3ccc(O)cc3)cc2)CC1`
Result: 73 to 77 °C

Ask: Quick one: `Cc1ccc(CCCNC(=O)N2CCC(Nc3ccc(CCNC[C@H](O)COc4ccc(O)cc4)cc3)CC2)cc1`
Result: 69 to 72 °C

Ask: Quick one: CCCCCCCCNC(=O)N1CCC(Nc2ccc(CCNC[C@H](O)COc3ccc(N)nc3)cc2)CC1 (as salt: salt)
Result: 134 to 138 °C

Ask: Quick one: O=C(NCc1ccc(F)cc1)N1CCC(Nc2ccc(CCNC[C@H](O)COc3ccc(O)cc3)cc2)CC1 (as salt: salt)
Result: 89 to 91 °C

Ask: Quick one: O=C(NC1CCCCC1)N1CCC(Nc2ccc(CCNC[C@H](O)COc3ccc(O)cc3)cc2)CC1 (as salt: salt)
Result: 77 to 86 °C

Ask: Quick one: O=C(NCc1ccc(F)cc1)N1CCC(Oc2ccc(CCNC[C@H](O)COc3ccc(O)cc3)cc2)CC1 (as salt: salt)
Result: 160 to 162 °C

Ask: Quick one: O=C(c1cc2cc(Br)ccc2[nH]1)N1CCC(Nc2ccc(CCNC[C@H](O)COc3ccc(O)cc3)cc2)CC1 (as salt: salt)
Result: 114 to 116 °C

Ask: Quick one: `CS(=O)(=O)Nc1cc([C@@H](O)CNCCc2ccc(NC3CCN(c4ccc(S(=O)(=O)N5CCCCC5)cc4)CC3)cc2)ccc1O`
Result: 118 to 120 °C

Ask: Quick one: COc1ccc2[nH]c(C(=O)N3CCC(Nc4ccc(CCNCC(O)COc5ccc(O)cc5)cc4)CC3)cc2c1 (stereo not drawn) (as salt: salt)
Result: 101 to 103 °C

Ask: Quick one: CC(=O)Nc1ccc(S(=O)(=O)N2CCC(Nc3ccc(CCNC[C@H](O)COc4ccc(O)cc4)cc3)CC2)cc1 (as salt: salt)
Result: 98 to 104 °C

Ask: Quick one: COc1c(C(=O)N2CCC(Nc3ccc(CCNC[C@H](O)COc4cccc(NC(C)=O)c4)cc3)CC2)sc2ccccc12 (as salt: salt)
Result: 96 to 98 °C

Ask: Quick one: `O=C(NCC1CCCC1)N1CCC(Nc2ccc(CCNC[C@H](O)COc3ccc(O)cc3)cc2)CC1`
Result: 76 to 78 °C

Ask: Quick one: `CCCCCCCCNC(=O)N1CCC(Nc2ccc(CCNC[C@H](O)c3ccc(O)c(NS(C)(=O)=O)c3)cc2)CC1`
Result: 160 to 162 °C
